- Test system: RARb:RXRa (NR concentration 270 nM, RXRa partner concentration 90 nM)
- assay_protocol: PBM binding z-score (relative to random genomic background probes); higher = stronger binding; sequences stand for … in GC…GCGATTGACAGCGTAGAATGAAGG
readout_kind: PBM binding z-score
Numbers only.

Worked examples follow.
# monomer_sequence, PBM binding z-score
data = [
    ("ATCTCAAGGTAAAGATAGTTCAGTGAATGCAAAT", 1.16),
    ("ACTCGGAGGACATAGGTCAGAGCTACGCCAGTGA", 2.31),
    ("ACAGACAGGTGAGTGAAGGTAACTGAGCTGGACG", 0.632),
    ("GATACAGGGTCAGGGCCAGAGTACGCGTATTGAT", 3.82),
]

Give me PBM binding z-score for each of these sequences, listed below.
1. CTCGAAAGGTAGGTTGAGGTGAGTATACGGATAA
2. ATATGTTGGTTACATCCGGGTCATTCAGGCTATG
3. TCTTGTAGATCAGCAGGGTAAGAAAGCTGGCCAA
4. CCTTCTAGGTCATGGTCAGCTAATCTACAGTATG
5. CGTAGCAGGCCAGGGTCACTCAAGCATTTCGCTT
6. ACTAGCAGGCCAAGGTTCACTCAAGATTAGTCCG
7. TCTAGTTGGTCAAATGTCACACACTCGAAATGCG
8. CTCGAAACGTCGGTTGAGGTGAGTATACGGATAA

[0.475, 1.62, -0.199, 4.08, 2.66, 1.62, 1.89, 0.205]

Give me PBM binding z-score for each of these sequences, listed below.
1. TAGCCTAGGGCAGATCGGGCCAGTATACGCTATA
2. GCTCTTAGTTGAAAGGGCAACCGAATGATTCTCG
3. TCTACCAGGCCAGAGGGTCACTCAAGAGGTACGG
4. CGAACTAGGTCACCGGAAGGTCAAAGTCCGCATG

1. 0.79
2. 2.08
3. 2.51
4. 5.2

====

- Test system: RARa homodimer (NR concentration 270 nM)
- assay_protocol: PBM binding z-score (relative to random genomic background probes); higher = stronger binding; sequences stand for … in GC…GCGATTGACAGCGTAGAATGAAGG
Provide the reported PBM binding z-score of each item.
Give bare numbers.

Give me PBM binding z-score for each of these sequences, listed below.
1. CGTCGAAGTTCAACTAAGGTAACGTAAAGCACGC
2. TAGACTAGGTCATGCGGGCCAGTATAGTGTCGGC
3. TCTTGTAGATCAGCAGGTTAAGACAGCTGGCCAA
4. GCAGACAGGTGAAACGCAGGTATCTCAGGGTGGC
5. TCTATTAGTTGAATGGCAACCGACGAGTCCGTTT
6. CTACCAAGGTGAACACGGTCGTTGATTACTATTC

1. 0.757
2. -0.228
3. 0.389
4. -0.595
5. 1.08
6. 0.749

====

- System: PPARg:RXRa IVT, anti-PPARg (NR concentration 270 nM, RXRa partner concentration 90 nM)
- assay_protocol: PBM binding z-score (relative to random genomic background probes); higher = stronger binding; sequences stand for … in GC…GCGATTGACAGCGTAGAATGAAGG
Label true (1) when PBM binding z-score is at or above 1; otherwise label false (0).

The examples below pair each entry with its known result.
# monomer_sequence, experimental_system, assigned_label
measured = [
    ("CCTGCTTGGTCAATGGTCAGCTAAAGCAGCTCGC", "PPARg:RXRa IVT, anti-PPARg (NR concentration 270 nM, RXRa partner concentration 90 nM)", "false (0)"),
    ("TCTAGTTGGTCACGGAGGTCACACATGACGGGTA", "PPARg:RXRa IVT, anti-PPARg (NR concentration 270 nM, RXRa partner concentration 90 nM)", "true (1)"),
    ("ACTCGGAGGACAAAGCTCAGAGCTACGCCAGTGA", "PPARg:RXRa IVT, anti-PPARg (NR concentration 270 nM, RXRa partner concentration 90 nM)", "false (0)"),
    ("TCATCTAGGTAATACAGGTGAAAGTCGGCATCTA", "PPARg:RXRa IVT, anti-PPARg (NR concentration 270 nM, RXRa partner concentration 90 nM)", "true (1)"),
    ("TCGAGTAGGTTAGTCGGTGCATTCAGCCAACATA", "PPARg:RXRa IVT, anti-PPARg (NR concentration 270 nM, RXRa partner concentration 90 nM)", "true (1)"),
    ("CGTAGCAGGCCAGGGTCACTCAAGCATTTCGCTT", "PPARg:RXRa IVT, anti-PPARg (NR concentration 270 nM, RXRa partner concentration 90 nM)", "true (1)"),
]

In plain terms: is recorded PBM binding z-score at least 1 for `TAGCCTAGGTCATTCAGGGGCCAGTGTAGAAAGC` ?
true (1)

In plain terms: is recorded PBM binding z-score at least 1 for `TAACCTAGGTCATGGGCCAGTATACCACGCGAAC` ?
true (1)

In plain terms: is recorded PBM binding z-score at least 1 for `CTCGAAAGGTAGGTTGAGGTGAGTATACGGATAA` ?
false (0)

In plain terms: is recorded PBM binding z-score at least 1 for `CCTCGGAGGACAACAGGACGTCAGAGCTGCCAGA` ?
false (0)

In plain terms: is recorded PBM binding z-score at least 1 for `CGTCCAAGGTCAAAGGTCAGTGATGAGATGACGG` ?
true (1)

In plain terms: is recorded PBM binding z-score at least 1 for `ATATGTAGGTTATCGGATCATTCAGTTTGCGCAT` ?
true (1)
